- system_under_test: T1, GST-HDMX (human (HDMX), UniProt O15151 1-134)
- T1 chain: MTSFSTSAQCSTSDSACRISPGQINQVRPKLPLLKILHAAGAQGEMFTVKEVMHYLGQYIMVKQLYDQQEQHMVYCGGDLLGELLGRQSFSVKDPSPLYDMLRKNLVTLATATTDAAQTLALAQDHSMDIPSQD
- experimental_protocol: Competition ELISA
Where no end group is shown, it is not given here.
endpoint_label: pIC50
The read-out pIC50 is expressed as -log10 of concentration in moles per litre.

[ask] What value of pIC50 has been reported for the following binder? QSQQTFANLWRLLAQN (not fully specified (residues 7, 14, N-terminus, C-terminus, bridges)) [peptide 46 (Table 9), Ac-QSQQTF%r8NLWRLL%QN-NH2]
[reply] 6.76
